- subject_of_test: HIV-1 Env of pseudovirus isolate MGRM-G-027 (subtype G) (HIV-1)
- method: cell-based or functional assay

binder	IC50, µg/mL
PGT-125 (antibody, V domains shown) VH: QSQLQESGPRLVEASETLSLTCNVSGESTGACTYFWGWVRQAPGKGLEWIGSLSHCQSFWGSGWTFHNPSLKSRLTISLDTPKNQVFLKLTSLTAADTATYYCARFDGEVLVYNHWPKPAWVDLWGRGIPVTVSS VL: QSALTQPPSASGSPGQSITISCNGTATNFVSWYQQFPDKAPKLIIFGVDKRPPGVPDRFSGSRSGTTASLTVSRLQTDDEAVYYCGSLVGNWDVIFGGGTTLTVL	34.4
PGT-135 (antibody, V domains shown) VH: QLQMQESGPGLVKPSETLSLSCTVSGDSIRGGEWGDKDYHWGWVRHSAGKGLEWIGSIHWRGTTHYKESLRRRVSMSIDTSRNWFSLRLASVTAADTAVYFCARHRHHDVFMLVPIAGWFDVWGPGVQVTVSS VL: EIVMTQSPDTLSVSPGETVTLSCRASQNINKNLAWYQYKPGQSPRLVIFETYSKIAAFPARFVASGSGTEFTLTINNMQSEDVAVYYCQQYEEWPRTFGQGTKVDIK	0.062
